- TESTED SYSTEM: UniProt P51449
- Sequence (P51449 whole entry, the tested form may be a part): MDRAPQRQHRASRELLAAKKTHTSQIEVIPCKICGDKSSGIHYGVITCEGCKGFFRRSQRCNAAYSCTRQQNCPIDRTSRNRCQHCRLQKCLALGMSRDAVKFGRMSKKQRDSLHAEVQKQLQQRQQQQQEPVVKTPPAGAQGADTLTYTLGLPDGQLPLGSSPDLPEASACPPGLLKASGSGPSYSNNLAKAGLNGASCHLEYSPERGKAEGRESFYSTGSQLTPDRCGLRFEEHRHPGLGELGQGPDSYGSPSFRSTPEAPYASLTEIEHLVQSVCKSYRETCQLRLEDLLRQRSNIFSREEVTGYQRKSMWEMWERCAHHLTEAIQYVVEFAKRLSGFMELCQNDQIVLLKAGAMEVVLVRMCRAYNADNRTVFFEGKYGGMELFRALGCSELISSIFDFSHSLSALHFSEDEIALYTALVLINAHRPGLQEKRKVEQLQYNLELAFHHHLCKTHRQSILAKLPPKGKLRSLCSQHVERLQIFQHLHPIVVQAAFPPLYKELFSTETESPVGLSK
- EXPERIMENTAL PROTOCOL: Agonist activity at biotinylated APC-labeled RORgammat LBD (unknown origin) assessed as increase in recruitment of europium-labeled SRC1 coactivator peptide incubated for 1 hr by dual FRET assay
READOUT KIND: EC50 (nM)
# unit: nM | format: bare number

## Input Give recorded EC50. CCS(=O)(=O)c1ccc(CC(=O)Nc2cc(Cl)c(-c3ccc(CC(C)C)c(C#N)c3)c(Cl)c2)cc1
## Output 12.2

## Input Give recorded EC50. CCS(=O)(=O)c1ccc(CC(=O)Nc2cc(Cl)c(-c3ccc(CC(C)C)c(F)c3)c(Cl)c2)cc1
## Output 15.2

## Input Give recorded EC50. CCS(=O)(=O)c1ccc(CC(=O)Nc2cc(Cl)c(-c3ccc(C=C4CCC4)c(C#N)c3)c(Cl)c2)cc1
## Output 20.7

## Input Give recorded EC50. CCS(=O)(=O)c1ccc(CC(=O)Nc2cc(Cl)c(-c3ccc(CC4CCCC4)c(C#N)c3)c(Cl)c2)cc1
## Output 14.3

## Input Give recorded EC50. CCS(=O)(=O)c1ccc(CC(=O)Nc2cc(Cl)c(-c3ccc(CC(C)C)cc3)c(Cl)c2)cc1
## Output 12.7

* * *

- EXPERIMENTAL PROTOCOL: Cmax in dog at 2 mg/kg,po administration measured after 24 hrs by LC-MS/MS analysis
- Type: ADME, organism-based, Canis lupus familiaris
- Set-up: dose 2 mg/kg, time 24 hrs, route po
- SETTINGS: in vivo
READOUT KIND: Cmax
Just the number plus its unit, please.

## Input Give recorded Cmax. CCS(=O)(=O)c1ccc(CC(=O)Nc2cc(Cl)c(-c3ccc(OC(C)C)c(C#N)c3)c(Cl)c2)cc1
## Output 518 ng/mL

* * *

- EXPERIMENTAL PROTOCOL: Oral bioavailability in CD-1 mouse at 5 mg/kg administration measured after 24 hrs by LC-MS/MS analysis
- Assay type: ADME, organism-based
- SETTINGS: in vivo
READOUT KIND: bioavailability (%)
# unit: % | format: bare number

## Input Give recorded bioavailability. CCS(=O)(=O)c1ccc(CC(=O)Nc2cc(Cl)c(-c3ccc(OC(C)C)c(C#N)c3)c(Cl)c2)cc1
## Output 90.3

* * *

- EXPERIMENTAL PROTOCOL: Metabolic Stability in rat liver microsome assessed as half life at […] measured upto 60 mins by HPLC-MS/MS analysis
- Assay type: ADME
- SETTINGS: liver microsomes
READOUT KIND: half-life

## Input Give recorded half-life. CCS(=O)(=O)c1ccc(CC(=O)Nc2cc(Cl)c(-c3ccc(OC(C)C)c(C#N)c3)c(Cl)c2)cc1
## Output > 145 min

* * *

For each record, write down the corresponding microsomal CLint.
- EXPERIMENTAL PROTOCOL: Metabolic Stability in mouse liver microsome assessed as microsomal intrinsic clearance at […] measured upto 60 mins by HPLC-MS/MS analysis
- Type: ADME
- SETTINGS: liver microsomes, read-out: CLH
# unit: µL/min/mg | format: bare number

## Input Give recorded microsomal CLint. CCC(C)Cc1ccc(-c2c(Cl)cc(NC(=O)Cc3ccc(S(=O)(=O)CC)cc3)cc2Cl)cc1C#N (configuration not stated)
## Output 17.6

## Input Give recorded microsomal CLint. CCS(=O)(=O)c1ccc(CC(=O)Nc2cc(Cl)c(-c3ccc(CN(C)C)c(C#N)c3)c(Cl)c2)cc1
## Output 108

## Input Give recorded microsomal CLint. CCS(=O)(=O)c1ccc(CC(=O)Nc2cc(Cl)c(-c3ccc(CC(C)C)c(C#N)c3)c(Cl)c2)nc1
## Output 37

## Input Give recorded microsomal CLint. CCS(=O)(=O)c1ccc(CNC(=O)c2cc(Cl)c(-c3ccc(CC(C)C)c(C#N)c3)c(Cl)c2)cc1
## Output 49.5

## Input Give recorded microsomal CLint. CCS(=O)(=O)c1ccc(CC(=O)Nc2cc(Cl)c(-c3ccc(CC(C)C)c(C#N)c3)c(Cl)c2)cc1
## Output 36.7

## Input Give recorded microsomal CLint. CCS(=O)(=O)c1ccc(CNC(=O)Nc2cc(Cl)c(-c3ccc(CC(C)C)c(C#N)c3)c(Cl)c2)cc1
## Output 27.4

* * *

- TESTED SYSTEM: Nuclear receptor ROR-alpha (Homo sapiens, UniProt P35398)
- Sequence (P35398 whole entry, the tested form may be a part): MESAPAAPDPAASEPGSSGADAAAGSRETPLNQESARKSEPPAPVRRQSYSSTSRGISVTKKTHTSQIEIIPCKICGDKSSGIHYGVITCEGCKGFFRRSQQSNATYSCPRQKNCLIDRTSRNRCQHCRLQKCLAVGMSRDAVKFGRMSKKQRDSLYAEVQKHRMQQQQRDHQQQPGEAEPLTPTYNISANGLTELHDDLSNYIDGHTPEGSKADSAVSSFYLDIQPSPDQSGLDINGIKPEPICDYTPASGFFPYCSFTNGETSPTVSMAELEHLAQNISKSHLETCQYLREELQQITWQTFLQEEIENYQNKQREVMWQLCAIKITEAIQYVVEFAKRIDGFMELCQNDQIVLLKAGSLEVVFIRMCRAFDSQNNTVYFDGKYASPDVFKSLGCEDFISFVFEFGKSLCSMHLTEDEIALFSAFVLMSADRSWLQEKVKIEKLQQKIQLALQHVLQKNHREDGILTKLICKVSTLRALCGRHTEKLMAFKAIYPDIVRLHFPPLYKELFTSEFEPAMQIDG
- EXPERIMENTAL PROTOCOL: Agonist activity at human Gal4-fused RORalpha expressed in HEK293T cells assessed as luciferase activity incubated for 16 to 20 hrs by Luciferase reporter gene assay
READOUT KIND: EC50 (nM)
# unit: nM | format: bare number

## Input Give recorded EC50. CC(C)(C[C@H]1CN(S(=O)(=O)c2cccc(C(F)(F)F)c2)c2cc(-c3cc(F)cc(OC(F)F)c3)ccc2O1)C(=O)O [CINTIRORGON]
## Output 2920

* * *

- TESTED SYSTEM: Voltage-gated inwardly rectifying potassium channel KCNH2 (Homo sapiens, UniProt Q12809)
- Sequence (Q12809 whole entry): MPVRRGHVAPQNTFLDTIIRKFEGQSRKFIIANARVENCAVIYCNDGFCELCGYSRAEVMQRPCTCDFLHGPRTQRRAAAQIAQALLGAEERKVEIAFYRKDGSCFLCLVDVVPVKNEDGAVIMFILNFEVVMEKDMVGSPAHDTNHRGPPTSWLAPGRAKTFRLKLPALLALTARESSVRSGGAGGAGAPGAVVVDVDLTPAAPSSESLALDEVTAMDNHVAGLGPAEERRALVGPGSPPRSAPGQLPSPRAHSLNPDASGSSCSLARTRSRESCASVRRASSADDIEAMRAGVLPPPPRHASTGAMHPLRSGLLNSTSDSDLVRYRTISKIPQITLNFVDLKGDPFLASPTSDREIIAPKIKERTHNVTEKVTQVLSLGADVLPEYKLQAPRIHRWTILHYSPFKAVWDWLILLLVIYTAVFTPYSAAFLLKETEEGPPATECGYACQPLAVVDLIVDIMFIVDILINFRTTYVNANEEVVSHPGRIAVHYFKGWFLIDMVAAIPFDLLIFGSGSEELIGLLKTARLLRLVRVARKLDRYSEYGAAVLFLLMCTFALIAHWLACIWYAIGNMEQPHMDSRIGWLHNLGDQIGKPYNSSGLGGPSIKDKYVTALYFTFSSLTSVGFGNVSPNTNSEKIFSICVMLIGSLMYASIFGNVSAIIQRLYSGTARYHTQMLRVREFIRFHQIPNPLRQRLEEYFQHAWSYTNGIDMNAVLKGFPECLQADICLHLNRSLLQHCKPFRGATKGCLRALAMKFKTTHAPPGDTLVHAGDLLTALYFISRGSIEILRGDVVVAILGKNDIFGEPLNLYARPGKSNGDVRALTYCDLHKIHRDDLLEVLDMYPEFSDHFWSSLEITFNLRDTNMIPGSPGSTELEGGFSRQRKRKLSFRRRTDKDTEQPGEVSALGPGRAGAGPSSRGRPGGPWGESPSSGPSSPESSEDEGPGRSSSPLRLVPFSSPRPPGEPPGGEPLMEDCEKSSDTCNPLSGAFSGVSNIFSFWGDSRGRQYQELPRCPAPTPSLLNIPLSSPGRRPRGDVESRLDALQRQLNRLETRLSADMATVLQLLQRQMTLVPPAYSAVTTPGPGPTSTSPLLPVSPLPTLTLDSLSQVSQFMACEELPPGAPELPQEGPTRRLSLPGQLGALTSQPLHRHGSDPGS
- EXPERIMENTAL PROTOCOL: Inhibition of hERG potassium channel by patch clamp assay
pIC50: −log10 of the molar value.
READOUT KIND: pIC50

## Input Give recorded pIC50. CCS(=O)(=O)c1ccc(CC(=O)Nc2cc(Cl)c(-c3ccc(OC(C)C)c(C#N)c3)c(Cl)c2)cc1
## Output < 5.00

* * *

- EXPERIMENTAL PROTOCOL: Volume of distribution at steady state in rat at 1 mg/kg,iv administration measured after 24 hrs by LC-MS/MS analysis
- Assay type: ADME, organism-based
- SETTINGS: in vivo, read-out: Vdss
READOUT KIND: Vd
Just the number plus its unit, please.

## Input Give recorded Vd. CCS(=O)(=O)c1ccc(CC(=O)Nc2cc(Cl)c(-c3ccc(OC(C)C)c(C#N)c3)c(Cl)c2)cc1
## Output 2.8 L/kg

* * *

- EXPERIMENTAL PROTOCOL: Metabolic Stability in dog liver microsome assessed as half life at […] measured upto 60 mins by HPLC-MS/MS analysis
- Type: ADME, Canis lupus familiaris
- SETTINGS: liver microsomes
READOUT KIND: half-life

## Input Give recorded half-life. CCS(=O)(=O)c1ccc(CC(=O)Nc2cc(Cl)c(-c3ccc(OC(C)C)c(C#N)c3)c(Cl)c2)cc1
## Output > 2.42 h

* * *

- EXPERIMENTAL PROTOCOL: AUC(infinity) in rat at 5 mg/kg,po administration measured after 24 hrs by LC-MS/MS analysis
- Format: ADME, organism-based
- Design: time 24 hrs, dose 5 mg/kg, route po
- SETTINGS: in vivo
READOUT KIND: AUC(0-inf)
Just the number plus its unit, please.

## Input Give recorded AUC(0-inf). CCS(=O)(=O)c1ccc(CC(=O)Nc2cc(Cl)c(-c3ccc(OC(C)C)c(C#N)c3)c(Cl)c2)cc1
## Output 10600 ng·h/mL

* * *

- EXPERIMENTAL PROTOCOL: Metabolic Stability in dog liver microsome assessed as microsomal intrinsic clearance at […] measured upto 60 mins by HPLC-MS/MS analysis
- Type: ADME, Canis lupus familiaris
- SETTINGS: liver microsomes, read-out: CLH
READOUT KIND: microsomal CLint

## Input Give recorded microsomal CLint. CCS(=O)(=O)c1ccc(CC(=O)Nc2cc(Cl)c(-c3ccc(OC(C)C)c(C#N)c3)c(Cl)c2)cc1
## Output < 9.6 µL/min/mg

* * *

- EXPERIMENTAL PROTOCOL: Oral bioavailability in rat at 5 mg/kg administration measured after 24 hrs by LC-MS/MS analysis
- Type: ADME, organism-based
- SETTINGS: in vivo
READOUT KIND: bioavailability (%)
# unit: % | format: bare number

## Input Give recorded bioavailability. CCS(=O)(=O)c1ccc(CC(=O)Nc2cc(Cl)c(-c3ccc(OC(C)C)c(C#N)c3)c(Cl)c2)cc1
## Output 39.4

* * *

- EXPERIMENTAL PROTOCOL: Half life in CD-1 mouse at 5 mg/kg,po administration measured after 24 hrs by LC-MS/MS analysis
- Format: ADME, organism-based
- SETTINGS: in vivo
READOUT KIND: half-life (h)
# unit: h | format: bare number

## Input Give recorded half-life. CCS(=O)(=O)c1ccc(CC(=O)Nc2cc(Cl)c(-c3ccc(OC(C)C)c(C#N)c3)c(Cl)c2)cc1
## Output 6

* * *

- EXPERIMENTAL PROTOCOL: Metabolic Stability in rat liver microsome assessed as microsomal intrinsic clearance at […] measured upto 60 mins by HPLC-MS/MS analysis
- Format: ADME
- SETTINGS: liver microsomes, read-out: CLH
READOUT KIND: microsomal CLint

## Input Give recorded microsomal CLint. CCS(=O)(=O)c1ccc(CC(=O)Nc2cc(Cl)c(-c3ccc(OC(C)C)c(C#N)c3)c(Cl)c2)cc1
## Output < 9.6 µL/min/mg

* * *

- EXPERIMENTAL PROTOCOL: AUC(infinity) in rat at 1 mg/kg,iv administration measured after 24 hrs by LC-MS/MS analysis
- Format: ADME, organism-based
- Design: dose 1 mg/kg, time 24 hrs, route iv
- SETTINGS: in vivo
READOUT KIND: AUC(0-inf) (ng·h/mL)
# unit: ng·h/mL | format: bare number

## Input Give recorded AUC(0-inf). CCS(=O)(=O)c1ccc(CC(=O)Nc2cc(Cl)c(-c3ccc(OC(C)C)c(C#N)c3)c(Cl)c2)cc1
## Output 5410
